experimentalSystem: glycerol kinase (GK, His-GK) (Haloferax volcanii)
Construct: gene glpK; N-terminal His-tagged GK (His-GK)
Sequence (D4GYI5 1-510): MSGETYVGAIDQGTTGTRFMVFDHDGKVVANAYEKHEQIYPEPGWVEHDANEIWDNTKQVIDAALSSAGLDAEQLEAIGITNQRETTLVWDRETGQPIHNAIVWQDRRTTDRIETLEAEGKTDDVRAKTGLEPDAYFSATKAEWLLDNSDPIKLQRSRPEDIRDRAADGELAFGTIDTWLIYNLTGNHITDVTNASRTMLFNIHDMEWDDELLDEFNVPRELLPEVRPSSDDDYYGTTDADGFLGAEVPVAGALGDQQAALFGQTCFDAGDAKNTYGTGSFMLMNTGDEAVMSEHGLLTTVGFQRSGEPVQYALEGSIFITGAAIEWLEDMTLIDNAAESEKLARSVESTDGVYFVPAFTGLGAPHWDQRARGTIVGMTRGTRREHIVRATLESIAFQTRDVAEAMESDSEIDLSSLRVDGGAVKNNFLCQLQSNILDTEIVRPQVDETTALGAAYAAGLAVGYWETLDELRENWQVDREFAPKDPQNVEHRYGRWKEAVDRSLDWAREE
testSummary: coupled enzyme kinetics of purified His-GK (Hill fit, n = […]); further DSF stabilization together with glycerol ([…]°C)
Type: biochemical
property: pKd
Give bare numbers, as −log10 of the molar value.

Briefly, pKd measured for `Nc1ncnc2c1ncn2[C@@H]1O[C@H](COP(=O)(O)OP(=O)(O)OP(=O)(O)O)[C@@H](O)[C@H]1O` : 2.80
